Some compounds, each annotated with its measured Enzyme degradation CDK2 (% remaining) @ 0.1 μM.
- EXPERIMENTAL_SYSTEM: CDK2 (Homo sapiens, UniProt P24941)
- Construct: endogenous in cells; host or cells: MDA-MB-231
- EXPERIMENT: CDK protein degradation activity (Western blotting), CDK2
- Assay type: cell-based
- DETAILS: MDA-MB-231 cells, 0.1 μM, 16 hours, Western blot

INSERT INTO results (compound, result) VALUES
  ('Cc1cccc(C(=O)NC2CC(n3cnc4c(NC5CCN(CCOC6CCN(c7cccc8c7C(=O)N([C@H]7CCC(=O)NC7=O)C8=O)CC6)CC5)ncnc43)C2)n1 (stereo partly drawn) [Compound 48]', '100/100/100%');

Entry O=C1CCC(N2C(=O)c3cccc(N4CCC(CN5CCC(CNc6ncnc7c6ncn7[C@H]6C[C@@H](NC(=O)Cc7ccccc7)C6)CC5)CC4)c3C2=O)C(=O)N1 (stereo partly drawn) [Compound 180] ; Enzyme degradation CDK2 (% remaining) @ 0.1 μM = 30/30/30%

Enzyme degradation CDK2 (% remaining) @ 0.1 μM for Cc1cccc(C(=O)NC2CC(n3cnc4c(NCc5ccc(N6CCN(CC7CCN(C(=O)CNc8cccc9c8C(=O)N([C@H]8CCC(=O)NC8=O)C9=O)CC7)CC6)cc5)ncnc43)C2)n1 (stereo partly drawn) [Compound 152] is 10/10/10%
